- assay text: Permeability across apical to basolateral side in human Caco-2 cells
- Type: ADME, cell-based
- test context: read-out: permeability
endpoint label: Papp A→B (×10⁻⁶ cm/s)

molecular_string=C/C(=C\c1cc(F)c(OCCCF)cc1F)C(=O)N[C@@H]1[C@H](O)[C@@H](O)[C@H]2OCO[C@H]2[C@@H]1O units_of_measure="×10⁻⁶ cm/s" reported_measurement=0.9
molecular_string=C/C(=C\c1cc(F)c(OCCCF)cc1F)C(=O)N[C@@H]1[C@H](O)[C@@H](O)[C@H]2OCO[C@H]2[C@@H]1OCc1ccccc1C#N units_of_measure="×10⁻⁶ cm/s" reported_measurement=2.5
molecular_string=C/C(=C\c1cc(F)c(OCCCF)cc1F)C(=O)N[C@H]1[C@@H](O)[C@@H]2OCO[C@@H]2[C@H](O)[C@H]1OCc1ccccc1 units_of_measure="×10⁻⁶ cm/s" reported_measurement=10

====

- Tested on: Streptococcus pneumoniae
- assay text: Antimicrobial activity against Streptococcus pneumoniae 1095
- Type: functional
Listed here are compounds together with their documented MIC.
endpoint label: MIC (µg/mL)

molecular_string=C/C(=C\c1cc(F)c(OCCCF)cc1F)C(=O)N[C@H]1C[C@@H]2OCO[C@@H]2[C@H](O)[C@H]1O study_system="Streptococcus pneumoniae" reported_relation== reported_measurement=8
molecular_string=C/C(=C\c1cc(F)c(OCCCF)cc1F)C(=O)N[C@@H]1[C@H](O)[C@@H](O)[C@H]2OCO[C@H]2[C@@H]1O study_system="Streptococcus pneumoniae" reported_relation== reported_measurement=0.4
molecular_string=C/C(=C\c1cc(F)c(OCCCF)cc1F)C(=O)N[C@H]1[C@@H](O)[C@@H]2OCO[C@@H]2[C@H](O)[C@H]1OCC1CC1 study_system="Streptococcus pneumoniae" reported_relation=> reported_measurement=64
molecular_string=CO[C@@H]1[C@@H](O)[C@@H](NC(=O)/C(C)=C/c2cc(F)c(OCCCF)cc2F)[C@@H](O)[C@@H]2OCO[C@H]12 study_system="Streptococcus pneumoniae" reported_relation== reported_measurement=25

====

- Tested on: Streptococcus pneumoniae
- assay text: Antimicrobial activity against Streptococcus pneumoniae 1095
- Assay type: functional
Listed here are molecules together with their documented log10 of MIC.
endpoint label: log10 of MIC (log10 of the value in µg/mL)

molecular_string=CO[C@@H]1[C@H](NC(=O)/C(C)=C/c2cc(F)c(OCCCF)cc2F)[C@H](O)[C@@H](O)[C@H]2OCO[C@H]21 study_system="Streptococcus pneumoniae" reported_measurement=0.19
molecular_string=CCCO[C@@H]1[C@H](NC(=O)/C(C)=C/c2cc(F)c(OCCCF)cc2F)[C@H](O)[C@@H](O)[C@H]2OCO[C@H]21 study_system="Streptococcus pneumoniae" reported_measurement=0.30
molecular_string=C/C(=C\c1cc(F)c(OCCCF)cc1F)C(=O)N[C@H]1[C@@H](O)[C@@H]2OCO[C@@H]2[C@H](O)[C@H]1OCc1ccccc1 study_system="Streptococcus pneumoniae" reported_measurement=1.51
molecular_string=C/C(=C\c1cc(F)c(OCCCF)cc1F)C(=O)N[C@@H]1[C@H](O)[C@@H](O)[C@H]2OCO[C@H]2[C@@H]1OCC#N study_system="Streptococcus pneumoniae" reported_measurement=0.00
molecular_string=C/C(=C\c1cc(F)c(OCCCF)cc1F)C(=O)N[C@H]1[C@@H](O)[C@@H]2OCO[C@@H]2C[C@H]1O study_system="Streptococcus pneumoniae" reported_measurement=0.90
molecular_string=C/C(=C\c1cc(F)c(OCCCF)cc1F)C(=O)N[C@@H]1[C@H](O)[C@@H](O)[C@H]2OCO[C@H]2[C@@H]1OCc1ccccc1 study_system="Streptococcus pneumoniae" reported_measurement=0.90
molecular_string=CCCO[C@@H]1[C@@H](O)[C@H]2OCO[C@H]2[C@H](O)[C@@H]1NC(=O)/C(C)=C/c1cc(F)c(OCCCF)cc1F study_system="Streptococcus pneumoniae" reported_measurement=1.81
